- systemTested: NAD-dependent protein deacylase sirtuin-5, mitochondrial (Homo sapiens)
- Sequence (Q9NXA8 whole entry): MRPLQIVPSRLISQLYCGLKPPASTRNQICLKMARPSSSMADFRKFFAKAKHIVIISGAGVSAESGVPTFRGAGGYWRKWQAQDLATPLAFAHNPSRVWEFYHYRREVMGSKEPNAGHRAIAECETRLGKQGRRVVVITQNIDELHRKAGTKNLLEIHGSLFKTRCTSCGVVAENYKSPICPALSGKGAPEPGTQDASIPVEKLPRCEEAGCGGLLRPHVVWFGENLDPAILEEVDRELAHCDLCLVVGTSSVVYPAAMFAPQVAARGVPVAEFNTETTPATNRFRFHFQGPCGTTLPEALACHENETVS
- experimentDescription: SIRT5 desuccinylase inhibitors, dose response, biochemical, fluorescence imaging, cherry-pick, set 5 (AID 720591);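 further: desuccinylation of succinyl peptide AMC substrate read as fluorescence after trypsin release; potency of inhibitors that lower fluorescence and may act on trypsin instead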
Active and inactive are the calls of the source. No stated cut-off is given here; in the data, actives have a measured AC50 and inactives only a lower limit.
Hi! Could you answer with just one of these? 1 (yes) = active, 0 (no) = inactive

1) COC(=O)[C@H](Cc1c[nH]c2ccccc12)NC(=O)NCc1ccc(OC)c(OC)c1 : 0 (no)
2) Oc1nc(Cc2ccc(F)cc2)nc2scc(-c3ccc(F)cc3)c12 : 1 (yes)
3) O=C(O)CSc1cc(C(=O)c2ccccc2O)cn2c(=O)c3c4c(sc3nc12)CCCC4 : 1 (yes)

Now consider the entry below.
## Input Dear all, I need the recorded test outcome for CN(C)C(CNC(=O)CCNC(=O)c1ccc(Cl)cc1)c1ccco1 (centres undefined) , thank you.
## Output 0 (no)
